- experiment.description: High Content Assay for Compounds that inhibit the Assembly of the Perinucleolar Compartment;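 note: plate controls were DMSO wells for no effect and camptothecin positive control wells for full effect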
- measurement.context: PC3M PTB-GFP, PNC prevalence imaging, 16 h; at 10 µM
In all, about 140,000 compounds went through this assay and about 4,300 (3.1%) were called active. Roughly 21% stayed inconclusive and do not appear here.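 Rule for the calls: active = readout at or below -70, meaning at least 70% loss of cells showing the perinucleolar compartment, a nuclear body marking cancer cells; inconclusive = readout between -30 and a set limit; inactive = the rest.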 Shown is part of a subset that was picked to be rich in actives.
In this exercise, the only acceptable responses are label 1 = active, label 0 = inactive

Incoming: Query: recorded result category for CC(NC(=O)Nc1ccccc1)c1ccccc1 (stereo unspecified) in this test
Outgoing: label 0

Incoming: Query: recorded result category for CCOC(=O)C1=C(CSc2nnnn2C)N(C)C(=O)NC1c1ccccc1 (stereo unspecified) in this test
Outgoing: label 0

Incoming: Query: recorded result category for `CCS(=O)(=O)Nc1cccc(-c2cc(-c3ccccc3)c3cc(C)ccc3n2)c1` in this test
Outgoing: label 0

Incoming: Query: recorded result category for `CCCc1cc(-c2nc(-c3ccc(C)cc3)cs2)ccn1` in this test
Outgoing: label 0

Incoming: Query: recorded result category for `CCCCCOc1ccc(/C=C/C(=O)NCCc2nc3ccccc3[nH]2)cc1OC` in this test
Outgoing: label 0

Incoming: Query: recorded result category for CC(NC(=O)c1cc(-c2ccccc2)on1)c1ccccc1 (stereo unspecified) in this test
Outgoing: label 1

Incoming: Query: recorded result category for `Cc1cc(Cl)ccc1NC(=S)NCCCN1CCCC1=O` in this test
Outgoing: label 0

Incoming: Query: recorded result category for `COc1ccccc1Nc1nc(N)nc(CN(C)C2CCCCC2)n1` in this test
Outgoing: label 0

Incoming: Query: recorded result category for `O=C(c1ccc(-n2cnnn2)cc1)N1CCN(C(c2ccccc2)c2ccccc2)CC1` in this test
Outgoing: label 1

Incoming: Query: recorded result category for `O=C(c1cccc(C(=O)N2CCc3ccccc32)n1)N1CCc2ccccc21` in this test
Outgoing: label 0

Incoming: Query: recorded result category for `Cc1cccc2cc3c(N)c(C(=O)N4CCCc5ccccc54)sc3nc12` in this test
Outgoing: label 1
